target: Nuclear receptor subfamily 1 group I member 2 (Homo sapiens)
experiment: Displacement of BODIPY FL vindoline from GST-tagged human PXR LBD incubated for 60 mins by TR-FRET assay
metricName: IC50 (nM)

| molecule | target | measuredValue |
| --- | --- | --- |
| COc1cc(OC)c(-n2nnc(S(=O)(=O)c3ccc(C(C)(C)C)cc3)c2C)cc1OC | Nuclear receptor subfamily 1 group I member 2 (Homo sapiens) | 1300 |

A = COc1ccc(OC)c(-n2nnc(S(=O)(=O)c3ccc(C(C)(C)C)cc3)c2C(C)=O)c1
B = COc1ccc([C@H](C)O)cc1-n1nnc(S(=O)(=O)c2ccc(C(C)(C)C)cc2)c1C
Thinking about recorded IC50 values, which is higher, A or B ? // respond with label for picked entry B

###

target: Nuclear receptor subfamily 1 group I member 2 (Homo sapiens, UniProt O75469)
experiment: Agonist activity at human PXR expressed in HepG2 cells co-expressing luciferase gene under control of CYP3A4 promoter incubated for 24 hrs by luciferase reporter assay
metricName: EC50 (µM)

| molecule | EC50 (µM) |
| --- | --- |
| COc1ccc(C)cc1-c1ncc(S(=O)(=O)c2ccc(C(C)(C)C)cc2)n1C | 0.99 |
| COc1ccc(Cl)cc1-c1nc(C)c(S(=O)(=O)c2ccc(C(C)(C)C)cc2)[nH]1 | 0.5 |
| COc1cc(C#N)c(C)cc1-n1nnc(S(=O)(=O)c2ccc(C(C)(C)C)cc2)c1C | 1.6 |
| COc1ccc(OC)c(-n2nnc(S(=O)(=O)c3ccc(N)cc3)c2C)c1 | 7 |
| COc1ccc(OC)c(-n2nnc(S(=O)(=O)c3ccc(C(C)(C)C)cc3)c2C#N)c1 | 0.26 |

1 = COc1cc(-n2nnc(S(=O)(=O)c3ccc(C(C)(C)C)cc3)c2C)c(OC)cc1F
2 = COc1ccc(OC)c(-n2nnc(S(=O)(=O)c3ccc(O)cc3)c2C)c1
Returns the identifier with the smallest measured EC50 among 1 and 2 . // respond with label for picked entry 1
(1: 1 µM, 2: 22 µM)

###

target: PXR (NR1I2) (Homo sapiens, UniProt O75469)
experiment: Agonist activity at human PXR expressed in HepG2 cells co-expressing luciferase gene under control of CYP3A4 promoter at 10 uM incubated for 24 hrs by luciferase reporter assay relative to control
metricName: activity at 24 h, 10 µM (%)

Worked examples follow.
| molecule | quantityUnit | activity at 24 h, 10 µM |
| --- | --- | --- |
| COc1ccc(OC)c(-n2nnc(S(=O)(=O)c3ccc(O)cc3)c2C)c1 | % | 138 |
| COc1ccc(OC)c(-c2nc(C)c(S(=O)(=O)c3ccc(C(C)(C)C)cc3)[nH]2)c1 | % | 86 |

P = COc1cc(C(C)=O)c(C)cc1-n1nnc(S(=O)(=O)c2ccc(C(C)(C)C)cc2)c1C
Q = COc1ccc(C)cc1-n1nnc(S(=O)(=O)c2ccc(C(C)(C)C)cc2)c1C(C)=O
Returns the identifier with the smallest measured activity at 24 h, 10 µM among P and Q . // respond with label for picked entry P

###

target: Nuclear receptor subfamily 1 group I member 2 (Homo sapiens, UniProt O75469)
Sequence (O75469 whole entry): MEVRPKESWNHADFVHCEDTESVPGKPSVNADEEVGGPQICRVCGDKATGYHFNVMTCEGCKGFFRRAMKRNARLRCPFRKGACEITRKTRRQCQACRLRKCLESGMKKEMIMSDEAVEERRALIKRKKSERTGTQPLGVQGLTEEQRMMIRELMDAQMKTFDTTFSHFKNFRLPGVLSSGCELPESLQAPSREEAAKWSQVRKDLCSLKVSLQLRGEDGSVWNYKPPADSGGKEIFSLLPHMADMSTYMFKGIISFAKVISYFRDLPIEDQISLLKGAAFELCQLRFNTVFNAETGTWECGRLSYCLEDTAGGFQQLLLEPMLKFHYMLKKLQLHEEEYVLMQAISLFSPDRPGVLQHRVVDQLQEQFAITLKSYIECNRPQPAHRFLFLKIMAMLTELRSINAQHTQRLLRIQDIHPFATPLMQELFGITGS
experiment: Agonist activity at human PXR expressed in HepG2 cells co-expressing luciferase gene under control of CYP3A4 promoter incubated for 24 hrs by luciferase reporter assay
pEC50: −log10 of the molar value.
metricName: pEC50

Worked examples follow.
| molecule | measuredValue |
| --- | --- |
| COc1ccc(Cl)cc1-c1nc(C)c(S(=O)(=O)c2ccc(C(C)(C)C)cc2)n1C | 5.92 |
| COC(=O)c1cc(OC)c(-n2nnc(S(=O)(=O)c3ccc(C(C)(C)C)cc3)c2C)cc1C | 5.80 |
| CCc1cc(OC)c(-n2nnc(S(=O)(=O)c3ccc(C(C)(C)C)cc3)c2C)cc1C | 6.05 |
| COc1cc(Cl)c(C)cc1-n1nnc(S(=O)(=O)c2ccc(C(C)(C)C)cc2)c1C | 6.10 |
| COc1ccc(C)cc1-c1ncc(S(=O)(=O)c2ccc(C(C)(C)C)cc2)[nH]1 | 6.15 |
| COc1cc(-n2nnc(S(=O)(=O)c3ccc(C(C)(C)C)cc3)c2C)c(OC)cc1C(C)=O | 6.30 |

1 = COc1cc(-n2nnc(S(=O)(=O)c3ccc(C(C)(C)C)cc3)c2C)c(OC)cc1Br
2 = COc1ccc(C(N)=O)cc1-n1nnc(S(=O)(=O)c2ccc(C(C)(C)C)cc2)c1C
Returns the identifier with the smallest measured pEC50 among 1 and 2 . // respond with label for picked entry 2
(2: 5.61, 1: 6.22)

The origin of these recorded values is ChEMBL document CHEMBL4834393.
